details: 313.15 K; 101.33 kPa; Liquid; Sing-around technique in a fixed-path interferometer
# speed of sound annotations
Respond numerically; units are m/s and should not be typed.

{"columns": ["Compound", "Unit label", "speed of sound"],
 "data": [
  ["CCCC[n+]1ccn(C)c1.O=S(=O)([N-]S(=O)(=O)C(F)(F)F)C(F)(F)F", "m/s", 1194.7]
]}

// query Specify reported speed of sound for the compound shown: CCCCn1cc[n+](C)c1.COS(=O)(=O)[O-] [1-butyl-3-methylimidazolium methyl sulfate]
// result 1620.4

// query # return recorded speed of sound for input CCCCn1cc[n+](C)c1.F[B-](F)(F)F [1-butyl-3-methylimidazolium tetrafluoroborate]
// result 1530.9

// query Assign speed of sound to the following record: CC(O)CO (centres undefined)
// result 1466.3

---

details: 313.15 K; 101.33 kPa; Liquid; Vibrating tube method
Measured property: mass density (kg/m3)
Your answer should be a plain number; it is taken to be in kg/m3.

Study these solved cases before continuing.
{"columns": ["Compound", "mass density, kg/m3"],
 "data": [
  ["CCCCn1cc[n+](C)c1.F[B-](F)(F)F [1-butyl-3-methylimidazolium tetrafluoroborate]", 1190.7],
  ["CCCC[n+]1ccn(C)c1.O=S(=O)([N-]S(=O)(=O)C(F)(F)F)C(F)(F)F", 1421.66],
  ["CCCCn1cc[n+](C)c1.COS(=O)(=O)[O-] [1-butyl-3-methylimidazolium methyl sulfate]", 1198.54]
]}

Attention now turns to another entry.
// query Identify measured mass density corresponding to CC(O)CO (centres undefined)
// result 1020.75

---

Documented speed of sound across a set of compounds
conditions: 308.15 K; 101.33 kPa; Liquid; Sing-around technique in a fixed-path interferometer
Give the quantity in m/s, number only.

Worked cases, answers included:
{"columns": ["Compound", "speed of sound [m/s]"],
 "data": [
  ["CCCC[n+]1ccn(C)c1.O=S(=O)([N-]S(=O)(=O)C(F)(F)F)C(F)(F)F", 1205.4],
  ["CCCCn1cc[n+](C)c1.F[B-](F)(F)F [1-butyl-3-methylimidazolium tetrafluoroborate]", 1542.2],
  ["CCCCn1cc[n+](C)c1.COS(=O)(=O)[O-] [1-butyl-3-methylimidazolium methyl sulfate]", 1632.4]
]}

Let us examine a further case.
// query Answer with the recorded speed of sound of CC(O)CO (centres undefined) only.
// result 1480

---

conditions: 303.15 K; 101.33 kPa; Liquid; Vibrating tube method
Measured property: mass density (kg/m3)
Answer in kg/m3, number only, no unit symbol.

{"columns": ["Molecule", "mass density [kg/m3]"],
 "data": [
  ["CCCCn1cc[n+](C)c1.COS(=O)(=O)[O-] [1-butyl-3-methylimidazolium methyl sulfate]", 1205.25],
  ["CC(O)CO (centres undefined) [1,2-propanediol]", 1028.31],
  ["CCCCn1cc[n+](C)c1.F[B-](F)(F)F [1-butyl-3-methylimidazolium tetrafluoroborate]", 1197.78]
]}

// query Respond only with mass density recorded for CCCC[n+]1ccn(C)c1.O=S(=O)([N-]S(=O)(=O)C(F)(F)F)C(F)(F)F
// result 1431.2

---

details: 293.15 K; 101.33 kPa; Liquid; Vibrating tube method
# mass density values compiled below
Number in kg/m3, nothing else.

These recorded examples may help you get a feel for the data.
{"columns": ["Compound", "Unit label", "mass density"],
 "data": [
  ["CCCCn1cc[n+](C)c1.F[B-](F)(F)F [1-butyl-3-methylimidazolium tetrafluoroborate]", "kg/m3", 1204.89],
  ["CCCC[n+]1ccn(C)c1.O=S(=O)([N-]S(=O)(=O)C(F)(F)F)C(F)(F)F", "kg/m3", 1440.81],
  ["CC(O)CO (centres undefined)", "kg/m3", 1035.73]
]}

// query For the compound CCCCn1cc[n+](C)c1.COS(=O)(=O)[O-] [1-butyl-3-methylimidazolium methyl sulfate] , give its reported mass density.
// result 1211.97

---

settings: 293.15 K; 101.33 kPa; Liquid; Sing-around technique in a fixed-path interferometer
In this section we review reported speed of sound values for a set of compounds.
Numbers only here, please. The scale is m/s.

Answered examples (3):
{"columns": ["Compound", "Unit label", "Value observed"],
 "data": [
  ["CCCC[n+]1ccn(C)c1.O=S(=O)([N-]S(=O)(=O)C(F)(F)F)C(F)(F)F", "m/s", 1238.6],
  ["CCCCn1cc[n+](C)c1.COS(=O)(=O)[O-] [1-butyl-3-methylimidazolium methyl sulfate]", "m/s", 1669.8],
  ["CC(O)CO (centres undefined) [1,2-propanediol]", "m/s", 1516.4]
]}

With those in mind, consider the next compound.
// query Consider the compound CCCCn1cc[n+](C)c1.F[B-](F)(F)F [1-butyl-3-methylimidazolium tetrafluoroborate] and give its recorded speed of sound.
// result 1576.6
